System: Acinetobacter baumannii
stated-conditions: A. baumannii ATCC 19606
Positions of bridges follow the written chain, without caps; N, C: chain ends. Non-standard residues stand in square brackets, D forms with d. Residues, ends and D or L forms follow the SMILES beside them. *: point of attachment. Benzoyl(3,5-Cl2) = O=C(c1cc(Cl)cc(Cl)c1)*; Benzoyl(4-Ph) = O=C(c1ccc(-c2ccccc2)cc1)*; X3 = O=C(c1ccc(Cl)cc1Cl)*; Dab = NCC[C@H](N)C(=O)O; Abu = CC[C@H](N)C(=O)O; Dap = NC[C@H](N)C(=O)O
readout: MIC (mg/L)
Numeric answer only, unit mg/L assumed.

// CC[C@@H]1NC(=O)[C@@H](CC(C)C)NC(=O)[C@H](CCN)NC(=O)[C@@H](NC(=O)[C@H](CN)NC(=O)[C@@H](NC(=O)[C@H](CCN)NC(=O)c2ccc(-c3ccccc3)cc2)[C@@H](C)O)CCNC(=O)[C@H]([C@@H](C)O)NC(=O)[C@H](CCN)NC(=O)[C@H](CCN)NC1=O [Compound 142] ({Benzoyl(4-Ph)}-[Dab]T[Dap][Dab][Dab][dL][Abu][Dab][Dab]T; lactam 4-C) : MIC value = 1

// CC[C@@H]1NC(=O)[C@@H](CC(C)C)NC(=O)[C@H](CCN)NC(=O)[C@@H](NC(=O)[C@H](CN)NC(=O)[C@@H](NC(=O)[C@H](CCN)NC(=O)c2ccc(Cl)cc2Cl)[C@@H](C)O)CCNC(=O)[C@H]([C@@H](C)O)NC(=O)[C@H](CCN)NC(=O)[C@H](CCN)NC1=O [Compound 82] (X3-[Dab]T[Dap][Dab][Dab][dL][Abu][Dab][Dab]T; lactam 4-C) : MIC value = 0.5

// CC[C@@H]1NC(=O)[C@@H](CC(C)C)NC(=O)[C@H](CCN)NC(=O)[C@@H](NC(=O)[C@H](CN)NC(=O)[C@@H](NC(=O)[C@H](CCN)NC(=O)c2cc(Cl)cc(Cl)c2)[C@@H](C)O)CCNC(=O)[C@H]([C@@H](C)O)NC(=O)[C@H](CCN)NC(=O)[C@H](CCN)NC1=O [Compound 96] ({Benzoyl(3,5-Cl2)}-[Dab]T[Dap][Dab][Dab][dL][Abu][Dab][Dab]T; lactam 4-C) : MIC value = 0.5
